target: Sodium- and chloride-dependent GABA transporter 1 (Mus musculus, UniProt P31648); assay: Inhibition of [3H]GABA uptake at mouse GAT1 expressed in HEK cells
Field 'label' (enum: yes / no). Set to yes when IC50 is strictly under 50 µM; else no.

**Query** Hi there! Is IC50 for Oc1cccc(CNCCC=C(c2ccccc2)c2ccccc2)c1 below 50 µM, do you know?
**Result** yes

**Query** Hi there! Is IC50 for CCCCCCCCCCCCNCc1ccccc1O below 50 µM, do you know?
**Result** no

**Query** Hi there! Is IC50 for COc1ccc(C(OCCNCc2ccc(F)c(O)c2F)(c2ccc(OC)cc2)c2ccc(OC)cc2)cc1 below 50 µM, do you know?
**Result** no

**Query** Hi there! Is IC50 for Cc1ccsc1C(=CCCN1CCC[C@@H](C(=O)O)C1)c1sccc1C below 50 µM, do you know?
**Result** yes

**Query** Hi there! Is IC50 for Oc1ccccc1CNCCC(c1ccccc1)c1ccccc1 below 50 µM, do you know?
**Result** no
